# measuredOn: human liver glycogen phosphorylase a (HLGPa) (Homo sapiens)
# Construct: creating a full-length cDNA fused at the 5′ end to codons for methionine-glycine-alanine-histidine; 6xHis tag (leader Met-Gly-Ala-His6-Gly-Gly) (N); made in house; host or cells: E. coli (bacterial expression plasmid pTXK1007LTev)
# Sequence (P06737 2-847 limits assumed): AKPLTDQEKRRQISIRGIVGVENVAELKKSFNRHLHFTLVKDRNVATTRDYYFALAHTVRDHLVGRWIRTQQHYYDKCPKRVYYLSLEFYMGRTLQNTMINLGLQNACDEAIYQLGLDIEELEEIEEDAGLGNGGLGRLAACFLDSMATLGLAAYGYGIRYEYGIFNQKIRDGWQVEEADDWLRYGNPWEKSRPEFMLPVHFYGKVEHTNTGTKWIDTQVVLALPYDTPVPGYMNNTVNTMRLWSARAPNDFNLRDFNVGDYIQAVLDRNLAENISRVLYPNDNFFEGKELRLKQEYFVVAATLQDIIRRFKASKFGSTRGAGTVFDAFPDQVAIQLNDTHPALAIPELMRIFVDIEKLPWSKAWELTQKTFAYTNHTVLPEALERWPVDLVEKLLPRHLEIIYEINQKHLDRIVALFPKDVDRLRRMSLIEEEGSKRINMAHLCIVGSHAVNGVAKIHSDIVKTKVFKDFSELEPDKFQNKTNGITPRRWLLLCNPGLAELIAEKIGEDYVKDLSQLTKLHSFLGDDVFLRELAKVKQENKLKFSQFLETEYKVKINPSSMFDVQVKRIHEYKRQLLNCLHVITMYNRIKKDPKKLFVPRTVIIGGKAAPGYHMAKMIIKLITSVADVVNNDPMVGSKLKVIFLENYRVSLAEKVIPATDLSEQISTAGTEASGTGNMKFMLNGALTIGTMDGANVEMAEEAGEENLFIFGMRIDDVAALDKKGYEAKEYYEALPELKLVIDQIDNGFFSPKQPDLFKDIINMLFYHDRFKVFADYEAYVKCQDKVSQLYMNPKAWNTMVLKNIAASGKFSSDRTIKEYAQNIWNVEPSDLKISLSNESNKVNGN
# protocol: Human liver glycogen phosphorylase a enzymatic activity assay (coupled, fluorescent resorufin readout, with and without 10 mM glucose)
# Format: biochemical
# conditions: human liver glycogen phosphorylase a; table does not say whether with or without 10 mM glucose
reportedProperty: IC50 (nM)

Use these answered entries as a reference point.
| molecule | measuredOn | resultUnits | IC50 |
| --- | --- | --- | --- |
| Cc1cc(C)c(NC(=O)Nc2cc3ccccc3cc2C(=O)NC(C(=O)O)C2CCC(N)CC2)c(C)c1 (mixture of isomers) [Example 351] | human liver glycogen phosphorylase a (HLGPa) (Homo sapiens) | nM | 2370 |
| Cc1cc(C)c(NC(=O)Nc2cc(-c3ccc(F)c(F)c3)ccc2C(=O)N[C@@H](CCC(=O)O)C(=O)O)c(C)c1 [Example 379] | human liver glycogen phosphorylase a (HLGPa) (Homo sapiens) | nM | 84 |
| Cc1cc(C(=O)N[C@H](C(=O)O)C2CCCCC2)c(NC(=O)Nc2c(Cl)cccc2Cl)s1 [Example 390] | human liver glycogen phosphorylase a (HLGPa) (Homo sapiens) | nM | 17500 |
| O=C1CCC(NC(=O)c2cc3ccccc3cc2NC(=O)Nc2c(Cl)cccc2Cl)(C(=O)O)CC1 [Example 292] | human liver glycogen phosphorylase a (HLGPa) (Homo sapiens) | nM | 6590 |
| COc1ccc(-c2ccc(C(=O)N[C@H](C(=O)O)[C@@H](C)OC(C)(C)C)c(NC(=O)Nc3c(C)cc(C)cc3C)c2)cc1 [Example 225] | human liver glycogen phosphorylase a (HLGPa) (Homo sapiens) | nM | 2 |

[A] O=C(Nc1cc(-c2ccc(F)c(F)c2)ccc1C(=O)N[C@H](C(=O)O)C1CCCCC1)Nc1c(Cl)cc(OC(F)(F)F)cc1Cl [Example 212]
[B] Cc1cccc(C)c1NC(=O)Nc1cc2ccccc2cc1C(=O)N(CC(=O)O)CC1CCCCC1 [Example 243]
Problem: Lower value for measured IC50? Options: A , B API: response body contains the label of the selected item.
Solution: A
(A: 17 nM, B: 1770 nM)
